# method: Pharmacokinetics of almonertinib in rats, alone and after multiple doses of rivaroxaban or apixaban
# Type: in vivo, Sprague-Dawley (SD) rats
# measurement.context: male, Sprague-Dawley, rat, plasma, po, 15 mg/kg, rats, oral almonertinib 15 mg/kg alone (group 3, control solvent of rivaroxaban), mean ± SD, n = 6; read-out: CLz/F (converted)
reported.endpoint: CL/F (mL/min/kg)
# number only, unit mL/min/kg dropped from output

Entry under review: C=CC(=O)Nc1cc(Nc2nccc(-c3cn(C4CC4)c4ccccc34)n2)c(OC)cc1N(C)CCN(C)C [almonertinib, Almonertinib] . Reported CL/F? 1880

----------
# method: Pharmacokinetics of almonertinib in rats, alone and after multiple doses of rivaroxaban or apixaban
# Type: in vivo, Sprague-Dawley (SD) rats
# measurement.context: male, Sprague-Dawley, rat, plasma, po, 15 mg/kg, rats, oral almonertinib 15 mg/kg after apixaban 0.5 mg/kg for five days (group 10), mean ± SD, n = 6
reported.endpoint: Tmax (h)
# number only, unit h dropped from output

Entry under review: C=CC(=O)Nc1cc(Nc2nccc(-c3cn(C4CC4)c4ccccc34)n2)c(OC)cc1N(C)CCN(C)C . Reported Tmax? 2.5

Data provenance is paper PMC10582335.
